Some molecules, each annotated with its measured % of Administered Dose in Feces Samples.
METHOD: Compound 1 human absorption, metabolism, and excretion study (single oral dose of [14C] Compound 1)
Format: in vivo
EXPERIMENTAL_PARAMETERS: feces, 72-96 h
Protocol: An open label-study was conducted, assessing the mass balance, pharmacokinetics, and metabolite profiles of a single oral dose of [14C] Compound 1: Blood/plasma, urine, and feces were collected from participants for 4 to 10 days after administration. […]
Write the value in % as a bare number.

As a guide, the following entries are already answered.
INPUT_SMILES: CCN1C(=O)N(c2c(F)c(O)cc(O)c2F)Cc2cnc3[nH]c(CN4CCOCC4)cc3c21
% of Administered Dose in Feces Samples (%): 1.1
--
INPUT_SMILES: CCN1C(=O)N(c2c(F)c(O)cc(OC)c2F)Cc2cnc3[nH]c(CN4CCOCC4)cc3c21
% of Administered Dose in Feces Samples (%): 14.5
--
INPUT_SMILES: CCN1C(=O)N(c2c(F)c(O)cc(OC)c2F)Cc2cnc3[nH]c(C(=O)O)cc3c21
% of Administered Dose in Feces Samples (%): 0.5

Next, consider the following molecule.
Problem: Form field: reported % of Administered Dose in Feces Samples of CCN1C(=O)N(c2c(F)c(OC)cc(OC)c2F)Cc2cnc3[nH]c(CN4CCOCC4)cc3c21
Solution: 0.2

---

ASSAYED_TARGET: P-gp (Homo sapiens (Human), UniProt P08183)
Sequence (P08183 whole entry): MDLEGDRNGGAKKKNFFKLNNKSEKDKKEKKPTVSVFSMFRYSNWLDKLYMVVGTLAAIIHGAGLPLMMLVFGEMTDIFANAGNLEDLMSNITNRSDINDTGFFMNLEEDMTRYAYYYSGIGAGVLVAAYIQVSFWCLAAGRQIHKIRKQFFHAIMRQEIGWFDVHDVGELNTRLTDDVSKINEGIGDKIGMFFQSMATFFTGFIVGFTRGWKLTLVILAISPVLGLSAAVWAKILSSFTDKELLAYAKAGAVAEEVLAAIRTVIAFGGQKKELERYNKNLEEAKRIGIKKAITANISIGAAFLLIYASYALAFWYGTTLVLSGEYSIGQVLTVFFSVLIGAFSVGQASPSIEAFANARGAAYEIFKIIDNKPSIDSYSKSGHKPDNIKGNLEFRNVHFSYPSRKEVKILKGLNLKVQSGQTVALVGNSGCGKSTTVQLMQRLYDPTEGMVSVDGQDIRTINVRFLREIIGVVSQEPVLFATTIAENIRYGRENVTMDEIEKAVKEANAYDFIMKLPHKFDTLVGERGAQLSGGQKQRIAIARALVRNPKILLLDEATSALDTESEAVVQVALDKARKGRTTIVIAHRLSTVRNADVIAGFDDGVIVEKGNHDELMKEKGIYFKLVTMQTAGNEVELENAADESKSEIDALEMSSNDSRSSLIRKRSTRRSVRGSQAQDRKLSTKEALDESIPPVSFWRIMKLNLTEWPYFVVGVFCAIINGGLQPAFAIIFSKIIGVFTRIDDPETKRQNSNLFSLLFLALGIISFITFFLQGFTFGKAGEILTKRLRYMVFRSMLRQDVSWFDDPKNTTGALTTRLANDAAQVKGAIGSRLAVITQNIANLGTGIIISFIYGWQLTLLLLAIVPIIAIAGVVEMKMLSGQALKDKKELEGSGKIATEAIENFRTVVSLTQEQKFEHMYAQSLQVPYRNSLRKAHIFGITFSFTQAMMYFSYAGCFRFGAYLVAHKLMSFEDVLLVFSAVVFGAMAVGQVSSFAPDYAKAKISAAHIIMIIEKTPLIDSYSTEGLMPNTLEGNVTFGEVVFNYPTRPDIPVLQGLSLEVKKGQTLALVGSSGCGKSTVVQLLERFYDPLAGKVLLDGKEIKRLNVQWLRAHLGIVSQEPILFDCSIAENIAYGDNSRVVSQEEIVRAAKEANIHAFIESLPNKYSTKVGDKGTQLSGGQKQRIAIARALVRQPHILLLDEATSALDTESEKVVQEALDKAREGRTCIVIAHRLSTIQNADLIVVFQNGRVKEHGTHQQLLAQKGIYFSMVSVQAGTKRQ
METHOD: Bidirectional transport across Caco-2 monolayers (P-gp mediated transport)
Format: in vitro ADME
EXPERIMENTAL_PARAMETERS: human, Caco-2, with cyclosporine A (CSA) 10 μM; 30 μM, with CSA 10 μM
Description: Caco-2 cells were grown in 96-well transwell plates with a seeding density of 14000 cell/well in DMEM medium. […] To determine whether a compound is a P-gp substrate, permeability values were measured in both the A-B and B-A directions (bidirectional transport assay) in the absence of 4% BSA. […] Transepithelial electrical resistance (TEER) was measured before and after the 120 minutes incubation to ensure the integrity of the cell monolayers. […]
MEASURED_ATTRIBUTE: Papp B→A at 120 min, 30 μM (×10⁻⁶ cm/s)
Write the value in ×10⁻⁶ cm/s as a bare number.

Problem: Report Papp B→A at 120 min, 30 μM for CCN1C(=O)N(c2c(F)c(O)cc(OC)c2F)Cc2cnc3[nH]c(CN4CCOCC4)cc3c21 [Compound 2] tested on P-gp (Homo sapiens (Human), UniProt P08183).
Solution: 3.1

---

METHOD: Compound 1 human absorption, metabolism, and excretion study (single oral dose of [14C] Compound 1)
Assay type: in vivo
EXPERIMENTAL_PARAMETERS: feces, 120-144 h
MEASURED_ATTRIBUTE: % of Administered Dose in Feces Samples (%)
Write the value in % as a bare number.

As a guide, the following entries are already answered.
INPUT_SMILES: CCN1C(=O)N(c2c(F)c(O)cc(OC)c2F)Cc2cnc3[nH]c(C(=O)O)cc3c21
% of Administered Dose in Feces Samples, %: 0.1

INPUT_SMILES: CCN1C(=O)N(c2c(F)c(O)cc(OC)c2F)Cc2cnc3[nH]c(CN4CCOCC4)cc3c21
% of Administered Dose in Feces Samples, %: 2.9

INPUT_SMILES: CCN1C(=O)N(c2c(F)c(O)cc(O)c2F)Cc2cnc3[nH]c(CN4CCOCC4)cc3c21
% of Administered Dose in Feces Samples, %: 0.4

Next, consider the following molecule.
Problem: Form field: reported % of Administered Dose in Feces Samples of CCN1C(=O)N(c2c(F)c(OC)cc(OC)c2F)Cc2cnc3[nH]c(CN4CCOCC4)cc3c21
Solution: 0.0
